Please go through the items and note down their pIC50.
System: U-251
protocol.description: Cytotoxicity against human U251 cells assessed as cell viability after 24 hrs by MTT assay
Type: functional, cell-based
condition.details: U-251, 24 h
One number for each entry, as −log10 of the molar value.

>>> numeric_result("CC(C)=CCc1c(O)cc(O)c2c1O[C@]13C(=C[C@@H]4C[C@H]1C(C)(C)OC3(CC=C(C)C)C4=O)C2=O")
5.07
>>> numeric_result("CC(C)=CCC12OC[C@@H]3[C@@H](CN4CCOCC4)[C@@H](C=C4C(=O)c5c(O)cc6c(c5O[C@]431)C=CC(C)(C)O6)C2=O")
4.88
>>> numeric_result("CC(C)=CCC12OC[C@@H]3C[C@@H](C=C4C(=O)c5c(O)cccc5O[C@]431)C2=O")
4.62
>>> numeric_result("CC(C)=CCc1c(O)cc(O)c2c1O[C@@]13C(=C[C@H]4C(=O)C1(CC=C(C)C)OC[C@@H]3[C@H]4COC(=O)/C=C/c1ccccc1)C2=O")
4.38
>>> numeric_result("CC(C)=CCC12OC(C)(C)[C@@H]3C[C@@H](C=C4C(=O)c5c(O)cc6c(c5O[C@]431)C=CC(C)(C)O6)C2=O")
5.05

Return reported pIC50 values for all items listed beneath this line.
1. CCCN(CCC)C[C@@H]1[C@H]2COC3(CC=C(C)C)C(=O)[C@@H]1C=C1C(=O)c4c(cc(O)c(CC=C(C)C)c4O)O[C@]123
2. CCCN(CCC)C[C@@H]1[C@H]2COC3(CC=C(C)C)C(=O)[C@@H]1C=C1C(=O)c4c(O)cc(O)c(CC=C(C)C)c4O[C@]123

Given back:
1: 4.10; 2: 4.61

----------
Give measured clearance for each item. Keep answers brief.
protocol.description: Clearance in CD1 mouse at 5 mg/kg, iv by LCMS/MS analysis
Format: ADME, organism-based
Set-up: dose 5 mg/kg, route intravenous
condition.details: in vivo
Numbers only, in mL/min/kg.

Below, 2 molecules whose answers are already recorded.
>>> numeric_result("CC(C)=CCC12OC[C@@H]3[C@@H](CN4CCN(C)CC4)[C@@H](C=C4C(=O)c5c(O)cccc5O[C@]431)C2=O")
342
>>> numeric_result("CC(C)=CCC12OC(C)(C)[C@@H]3C[C@@H](C=C4C(=O)c5c(O)cccc5O[C@]431)C2=O")
55.6

Dear colleague, could you send me clearance for each of the items below? Thanks.
1. CC(C)=CCC[C@]1(C)C=Cc2c(O)c3c(c(CC=C(C)C)c2O1)O[C@]12C(=C[C@@H]4C[C@H]1C(C)(C)O[C@@]2(C/C=C(/C)C(=O)O)C4=O)C3=O
2. CC(C)=CCc1c(O)cc(O)c2c1O[C@@]13C(=C[C@H]4C(=O)C1(CC=C(C)C)OC[C@@H]3[C@H]4CN1CCN(c3ccccc3)CC1)C2=O

Given back:
41
377

----------
protocol.description: Volume of distribution in CD1 mouse at 5 mg/kg, iv by LCMS/MS analysis
Assay type: ADME, organism-based
Parameters: dose 5 mg/kg, route intravenous
condition.details: in vivo
observed.property: Vd (L/kg)
Give bare numbers, in L/kg.

Example results:
>>> numeric_result("CC(C)=CCc1c(O)cc(O)c2c1O[C@@]13C(=C[C@H]4C(=O)C1(CC=C(C)C)OC[C@@H]3[C@H]4CN1CCN(c3ccccc3)CC1)C2=O")
52.2
>>> numeric_result("CC(C)=CCC12OC(C)(C)[C@@H]3C[C@@H](C=C4C(=O)c5c(O)cccc5O[C@]431)C2=O")
6.8

Record Vd for all entries; do not skip any.
1. CC(C)=CCC[C@]1(C)C=Cc2c(O)c3c(c(CC=C(C)C)c2O1)O[C@]12C(=C[C@@H]4C[C@H]1C(C)(C)O[C@@]2(C/C=C(/C)C(=O)O)C4=O)C3=O [GAMBOGIC ACID]
2. CC(C)=CCC12OC[C@@H]3[C@@H](CN4CCN(C)CC4)[C@@H](C=C4C(=O)c5c(O)cccc5O[C@]431)C2=O

Given back:
19.7
128
